# test.system: T1, RSV F ectodomain stabilized in the postfusion conformation (F ΔFP), subtype A (Respiratory syncytial virus subtype A, UniProt P03420 26-109; P03420 147-524)
# T1 construct: extracellular domain; trimer; furin-cleaved; also called Postfusion subtype A
# assay.info: BLI, IgG on AHQ sensor, 100 nM antigen
readout.name: Kd
Report the figure along with its unit, number first.

-- ask What measured Kd goes with ADI-14466 (antibody, V domains shown, full-length IgG (yeast-expressed); also called Antibody Number 29; Ab# 29) VH: QVQLVQSGAEAKKPGEPLRISCKGSGYTFSSYWISWVRQRPGERLEWMGRIDPSDSYAYSSPSFQGHVTFSADKSSNTAFLQWSSLQASDTAIYYCARHKENYDFWDFWGQGTMVTVSS VL: ETTLTQSPDSLAVSLGERATINCRSSQPILFNPINKLSLAWYQLKPGQPPKLLISWASTREPGVPDRFNGSGSGTVFTLTISSLQPEDVAVYVCQQYFTSTFFGPGTKVEIK ?
-- reply 0.247 nM

-- ask What measured Kd goes with ADI-14484 (antibody, V domains shown, full-length IgG (yeast-expressed); also called Antibody Number 45; Ab# 45) VH: QVTLKESGPALVRPKQTLTLTCSFSGFSLDTQRTGVNWIRQSPGKALEWLARIDWDGNIYSSTSVRTKLSISKGTSKNQVVLTMTDVDPVDTATYYCARTLYYTSGGYYLNLFDYWGQGTLVTVSS VL: EIVMTQSPPSLSASVGDRVTITCRASQTIPSYVNWYQQISGKAPRLLIYAASLLQSGVPSRFSGSGSGTEFSLTISGLRPEDFGTYYCQQSYSSTPTFGQGTRLEIK ?
-- reply 0.389 nM

-- ask What measured Kd goes with ADI-14470 (antibody, V domains shown, full-length IgG (yeast-expressed); also called Antibody Number 33; Ab# 33) VH: QVTLKESGPALVKPTETLTLTCTFSGFSLSTKRLSVSWIRQPPGKALEWLARIDWDDDKSYSTSLRTRLTIAKDTSKNQVVLTMTNMGPADTATYFCVRSSVYASNAYYLYYFDSWGQGTLVTVSS VL: DIRMTQSPSSLSASVGDRVTITCRASQSIATYLNWYQHKPGKAPTLLIYAASILHSGVPPRFSGRASGTDFTLTISSLQPEDFATYYCQQAYSSPYTFGQGTKVDIK ?
-- reply 0.358 nM
